- systemUnderTest: Peptidyl-prolyl cis-trans isomerase H (Homo sapiens)
- Sequence (O43447 whole entry): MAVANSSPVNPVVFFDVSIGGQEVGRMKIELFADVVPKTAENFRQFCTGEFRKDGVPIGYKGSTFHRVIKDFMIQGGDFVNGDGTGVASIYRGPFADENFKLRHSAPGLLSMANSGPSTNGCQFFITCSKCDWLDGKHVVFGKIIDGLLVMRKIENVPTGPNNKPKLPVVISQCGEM
pKi: −log10 of the molar value.
quantity: pKi

Nc1cc(F)cc(-c2ccc(O)c(C(=O)C3CCc4ccccc43)c2)c1O (configuration not stated) : < 4.00

Tell me pKi reported for O=C(c1cc(-c2cc(F)cc([N+](=O)[O-])c2O)cc([N+](=O)[O-])c1O)C1CCc2ccccc21 (configuration not stated)
< 4.00

----------
Observed Ki values for Peptidyl-prolyl cis-trans isomerase A (Homo sapiens) are listed in what follows.
The figure you give is taken to be in nM; do not add the unit.

Nc1cc(F)cc(-c2ccc(O)c(C(=O)C3CCc4ccccc43)c2)c1O (centres undefined) : 300
COc1ccc(C(F)(F)F)cc1C(=O)C1CCc2ccccc21 (centres undefined) : 10000

Could you now look at the following compound, please?
State Ki (Peptidyl-prolyl cis-trans isomerase A (Homo sapiens)) of O=C(c1cc(-c2cc(F)cc([N+](=O)[O-])c2O)cc([N+](=O)[O-])c1O)C1CCc2ccccc21 (centres undefined) .
520

----------
Observed Ki values for UniProtKB P23284 are listed in what follows.
Sequence (P23284 whole entry): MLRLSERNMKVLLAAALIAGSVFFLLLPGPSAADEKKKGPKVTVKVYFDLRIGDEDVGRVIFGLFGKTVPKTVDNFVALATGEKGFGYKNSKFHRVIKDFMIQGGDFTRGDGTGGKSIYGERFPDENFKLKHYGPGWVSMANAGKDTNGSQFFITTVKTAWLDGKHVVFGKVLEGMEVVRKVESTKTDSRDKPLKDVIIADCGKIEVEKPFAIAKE

O=C(c1cc(-c2cc(F)cc([N+](=O)[O-])c2O)cc([N+](=O)[O-])c1O)C1CCc2ccccc21 (centres undefined) : > 100 µM
O=C1Oc2ccccc2C12Cc1ccccc1C2 : > 100 µM
Nc1cc(F)cc(-c2ccc(O)c(C(=O)C3CCc4ccccc43)c2)c1O (centres undefined) : 12 µM

Could you now look at the following compound, please?
State Ki (UniProtKB P23284) of COc1ccc2c(c1)C1(CC(C)c3ccccc31)C(=O)O2 (centres undefined) .
> 100 µM
